What T/C was measured for each of the following?
- Tested on: BDF1 mice, Adenocarcinoma 755 s.c., tumor weight T/C
- Method: NCI In Vivo Anticancer Drug Screen. Data for tumor model Adenocarcinoma 755 (subcutaneous) in B6D2F1 (BDF1) mice
- Condition: endpoint: mean tumor weight; dose: 3.0 mg/kg/injection; schedule: Q01DX011 (ip); vehicle: carboxymethylcellulose (CMC); higher = larger tumour
- Procedure: The antitumor activity of compounds was measured in mice bearing transplantable tumors. Survival or tumor size were measured and the results are expressed as the measurement made in the treated group (T) divided by the measurement made in the vehicle treated control group (C). The tumor model used in this assay is Adenocarcinoma 755 (subcutaneous) in B6D2F1 (BDF1) mice

T/C lookup needed for `COc1ccc(C[n+]2cc([O-])on2)cc1` , thanks. 70 % of control

Please do the same for `c1ccc(CSc2ncnc3nc[nH]c23)cc1` as well. 59 % of control

Please do the same for `Nc1nc(SC2=NCCN2)c2[nH]cnc2n1` as well. 6 % of control

Please do the same for Nc1nc(=S)c2ncn(C3CCCO3)c2[nH]1 (centres undefined) as well. 38 % of control

Please do the same for `CSc1ncnc2c1ncn2CCCl` as well. 80 % of control

Please do the same for `c1ccc(CSc2ncnc3nc[nH]c23)nc1` as well. 26 % of control

Please do the same for CCOP(=O)(O)OCC1OC(n2cnc3c(=S)nc[nH]c32)C(O)C1O (centres undefined) as well. 12 % of control

Please do the same for `Nc1nc(N)c(N=O)c(Nc2ccc(Cl)c(Cl)c2)n1` as well. 76 % of control

Please do the same for `CCCCOP(=S)(N1CC1)N1CC1` as well. 23 % of control

* * *

- Test system: BDF1 mice, Adenocarcinoma 755 s.c., tumor weight T/C
- Method: NCI In Vivo Anticancer Drug Screen. Data for tumor model Adenocarcinoma 755 (subcutaneous) in B6D2F1 (BDF1) mice
- Condition: endpoint: mean tumor weight; dose: 31.25 mg/kg/injection; schedule: Q01DX011 (ip); vehicle: methylcellulose (MC); higher = larger tumour
Parameter measured: T/C

Missing value: T/C, BDF1 mice, Adenocarcinoma 755 s.c., tumor weight T/C, entry `CCCn1cnc2c(SCc3ccccc3)nc(N)nc21` . Fill in? 37 % of control

Please do the same for CCOC1CCCC(n2cnc3c(Cl)ncnc32)O1 (stereo not given) as well. 43 % of control

Please do the same for `CCNc1nncs1` as well. 62 % of control

Please do the same for `CN(C)c1nc(N(C)C)nc(N(C)C)n1` as well. 91 % of control

Please do the same for CN(C)C1C(=O)C(C(N)=O)=C(O)C2(O)C(=O)C3=C(O)c4c(O)cccc4C(C)(O)C3C(O)C12 (stereo not given) as well. 117 % of control

* * *

- Test system: BDF1 mice, Adenocarcinoma 755 s.c., tumor weight T/C
- Method: NCI In Vivo Anticancer Drug Screen. Data for tumor model Adenocarcinoma 755 (subcutaneous) in B6D2F1 (BDF1) mice
- Condition: endpoint: mean tumor weight; dose: 14.0 mg/kg/injection; schedule: Q01DX011 (ip); vehicle: carboxymethylcellulose (CMC); higher = larger tumour
Parameter measured: T/C

T/C lookup needed for `CC(CNC(=O)CCOS(C)(=O)=O)CNC(=O)CCOS(C)(=O)=O` , thanks. 73 % of control

Please do the same for `O=C=NC(c1ccccc1)(c1ccccc1)c1ccccc1` as well. 103 % of control

Please do the same for `CS(=O)(=O)OCCC(=O)NCNC(=O)CCOS(C)(=O)=O` as well. 42 % of control

Please do the same for C1OC1C1CO1 (centres undefined) as well. 110 % of control

* * *

- Tested on: BDF1 mice, Adenocarcinoma 755 s.c., tumor weight T/C
- Method: NCI In Vivo Anticancer Drug Screen. Data for tumor model Adenocarcinoma 755 (subcutaneous) in B6D2F1 (BDF1) mice
- Condition: endpoint: mean tumor weight; dose: 100.0 mg/kg/injection; schedule: Q01DX011 (ip); vehicle: carboxymethylcellulose (CMC); higher = larger tumour
Parameter measured: T/C

Missing value: T/C, BDF1 mice, Adenocarcinoma 755 s.c., tumor weight T/C, entry `O=C1C(NC(=O)C2CCCCC2)=C(N2CC2)C(=O)C(NC(=O)C2CCCCC2)=C1N1CC1` . Fill in? 104 % of control

Please do the same for `c1ccc(CSc2ncnc3nc[nH]c23)cc1` as well. 2 % of control

Please do the same for CC1CN1P(=S)(N1CCCCC1)N1CC1C (configuration not stated) as well. 121 % of control

Please do the same for Cc1cc(O)c(C(C)C)cc1S(=O)(=O)O (tested in a mixture with another compound) as well. 49 % of control

Please do the same for CCN(CC)CCCC(C)Nc1c2ccc(Cl)cc2nc2ccc(OC)cc12 (configuration not stated) as well. 52 % of control

Please do the same for `NC(=O)NO` as well. 58 % of control

Please do the same for `Oc1ccc2ccccc2c1N=Nc1ccc(F)cc1` as well. 27 % of control

Please do the same for Cc1ccc(C(=O)OCC2OC(n3cnc4c(=S)nc(N)[nH]c43)C(OC(=O)c3ccc(C)cc3)C2OC(=O)c2ccc(C)cc2)cc1 (configuration not stated) as well. 81 % of control

Please do the same for `Cc1nc(Cl)c(C#N)c(C(F)(F)F)c1N` as well. 153 % of control

Please do the same for `CN1CCC(OC(N)=O)CC1` as well. 70 % of control

Please do the same for `S=c1[nH]c(=S)c2[nH]cnc2[nH]1` as well. 31 % of control

Please do the same for `CC(CNC(=O)CCOS(C)(=O)=O)CNC(=O)CCOS(C)(=O)=O` as well. 15 % of control

* * *

- System: BDF1 mice, Adenocarcinoma 755 s.c., tumor weight T/C
- Method: NCI In Vivo Anticancer Drug Screen. Data for tumor model Adenocarcinoma 755 (subcutaneous) in B6D2F1 (BDF1) mice
- Condition: endpoint: mean tumor weight; dose: 125.0 mg/kg/injection; schedule: Q01DX011 (ip); vehicle: methylcellulose (MC); higher = larger tumour
Parameter measured: T/C

T/C lookup needed for `O=c1[nH]cc(Br)c(=S)[nH]1` , thanks. 119 % of control

Please do the same for `CSc1ncc(Br)c(Nc2ccc(C)cc2)n1` as well. 92 % of control

Please do the same for `N#CCCNC(=O)Nc1ccccc1` as well. 101 % of control

Please do the same for `Nc1nc(=S)cc(Nc2ccccc2Cl)[nH]1` as well. 93 % of control

Please do the same for `Cc1cnc(SCc2ccccc2Cl)nc1N(C)C` as well. 109 % of control

Please do the same for `Nc1nc(SCc2ccccc2)c2ncn(Cc3ccccc3)c2n1` as well. 14 % of control

Please do the same for C=CC1CN2CCC1CC2C(O)c1ccnc2ccc(OC)cc12 (configuration not stated) as well. 82 % of control

* * *

- System: BDF1 mice, Adenocarcinoma 755 s.c., tumor weight T/C
- Method: NCI In Vivo Anticancer Drug Screen. Data for tumor model Adenocarcinoma 755 (subcutaneous) in B6D2F1 (BDF1) mice
- Condition: endpoint: mean tumor weight; dose: 31.0 mg/kg/injection; schedule: Q01DX011 (ip); vehicle: methylcellulose (MC); higher = larger tumour
Parameter measured: T/C

Missing value: T/C, BDF1 mice, Adenocarcinoma 755 s.c., tumor weight T/C, entry `N#Cc1ccc(Nc2cc(Cl)nc(N)n2)cc1` . Fill in? 87 % of control

Please do the same for `Cc1cnc(SCc2ccc(Cl)cc2)nc1Nc1ccc(Cl)cc1Cl` as well. 97 % of control

Please do the same for `Nc1nc(Cl)cc(Nc2cccc(Cl)c2)n1` as well. 104 % of control

Please do the same for `Cc1cnc(SCc2ccc(Cl)cc2Cl)nc1Nc1ccc(Cl)c(Cl)c1` as well. 97 % of control

Please do the same for `Cc1cnc(SCc2ccc(Cl)cc2Cl)nc1SCc1ccc(Cl)cc1Cl` as well. 114 % of control

Please do the same for O=P(OCC1OC(n2cnc3c(=S)nc[nH]c32)C(O)C1O)(Oc1ccccc1)Oc1ccccc1 (stereo not given) as well. 39 % of control

Please do the same for `CSc1ncc(Br)c(=O)[nH]1` as well. 72 % of control

Please do the same for `CNc1nc(SCc2ccccc2)ncc1C` as well. 60 % of control

Please do the same for `O=c1[nH]cc(Br)c(=S)[nH]1` as well. 86 % of control

Please do the same for `CSc1ncc(Br)c(SCc2ccc(Cl)cc2Cl)n1` as well. 108 % of control

* * *

- Tested on: BDF1 mice, Adenocarcinoma 755 s.c., tumor weight T/C
- Method: NCI In Vivo Anticancer Drug Screen. Data for tumor model Adenocarcinoma 755 (subcutaneous) in B6D2F1 (BDF1) mice
- Condition: endpoint: mean tumor weight; dose: 30.0 mg/kg/injection; schedule: Q01DX011 (ip); vehicle: carboxymethylcellulose (CMC); higher = larger tumour
- Experimental: The antitumor activity of compounds was measured in mice bearing transplantable tumors. Survival or tumor size were measured and the results are expressed as the measurement made in the treated group (T) divided by the measurement made in the vehicle treated control group (C). The tumor model used in this assay is Adenocarcinoma 755 (subcutaneous) in B6D2F1 (BDF1) mice
Parameter measured: T/C

T/C lookup needed for `Cc1cc(NC(=O)c2ccc(C(=O)Nc3ccc(N=Nc4cc(S(=O)(=O)O)c5cccc(S(=O)(=O)O)c5c4)c(C)c3)cc2)ccc1N=Nc1cc(S(=O)(=O)O)c2cccc(S(=O)(=O)O)c2c1` , thanks. 114 % of control

Please do the same for Nc1nc2c([nH]c(=S)n2C2OC(CO)C(O)C2O)c(=O)[nH]1 (stereo not given) as well. 89 % of control

Please do the same for `Cn1cnc2c(Cl)nc(C(F)(F)F)nc21` as well. 80 % of control

Please do the same for `CN(C)S(=O)(=O)c1nc2nc[nH]c(=O)c2[nH]1` as well. 108 % of control

Please do the same for `FC(F)(F)c1nc(Cl)nc2c1ncn2Cc1ccccc1` as well. 56 % of control

Please do the same for `Cn1c(=O)c2c(nc(N/N=C/c3ccccc3C(=O)O)n2C)n(C)c1=O` as well. 76 % of control

Please do the same for `CCCN(C)/N=N/c1nc[nH]c1C(N)=O` as well. 30 % of control

Please do the same for O=C(OCC1OC(n2cnc3c(=O)[nH]c(=O)[nH]c32)C(OC(=O)c2ccccc2)C1OC(=O)c1ccccc1)c1ccccc1 (stereo not given) as well. 105 % of control

Please do the same for `O=c1[nH]c(Br)nc2nc[nH]c12` as well. 99 % of control

Please do the same for `[N-]=[N+]=NC1(C(=O)O)CCCC1` as well. 100 % of control
